Test system: Str. pneumoniae, J24
Assay: antibacterial activity (MIC), standard method of the Japan Society of Chemotherapy
Type: cell-based
measured.parameter: MIC

>>> print(df.to_string())
                                   compound  reported_result
0  COc1c(N2CCC(C(N)C3CC3)C2)c(F)cc2c(=O)c(C(=O)O)cn(C3CC3F)c12 (stereo not shown)     ≦0.003 μg/ml
1  Nc1c(F)c(N2CCC(C(N)C3CC3)C2)c(F)c2c1c(=O)c(C(=O)O)cn2C1CC1F (stereo not shown)     ≦0.003 μg/ml
2  COc1c(N2CCC(C(N)C3CC3)C2)ccc2c(=O)c(C(=O)O)cn(C3CC3)c12 (stereo not shown)          6 ng/mL
3  Cc1c(N2CCC(C(N)C3CC3)C2)c(F)c(N)c2c(=O)c(C(=O)O)cn(C3CC3F)c12 (stereo not shown)     ≦0.003 μg/ml

The origin of these recorded values is patent US6573260B1.
